tested on: 361931-004-R-J1-PDC multicell spheroid viability; test: Anticancer human tumor 361931-004-R-J1-PDC patient-derived colon adenocarcinoma cell line growth inhibition [PI3K]; settings: second compound 1 µM; first compound 10 µM; active compounds read low;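 note: spheroids exposed to agents for seven days before readout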
What viability, T/C was measured for each of the following?
Numbers only, in %.

[
  {
    "Compound": "CNC(=O)c1ccc(N2C(=S)N(c3ccc(C#N)c(C(F)(F)F)c3)C(=O)C2(C)C)cc1F + Cc1nc(NC(=O)N2CCCC2C(N)=O)sc1-c1ccnc(C(C)(C)C(F)(F)F)c1",
    "Measurement Kind": "viability, T/C",
    "Reading": 85.6
  },
  {
    "Compound": "CNC(=O)c1ccc(N2C(=S)N(c3ccc(C#N)c(C(F)(F)F)c3)C(=O)C2(C)C)cc1F + CC(Nc1ccc2c(c1)OCCn1cc(N3C(=O)OCC3C(F)F)nc1-2)C(N)=O",
    "Measurement Kind": "viability, T/C",
    "Reading": 79.6
  },
  {
    "Compound": "C=CC(=O)N1CCN(c2nc(=O)n(-c3c(C)ccnc3C(C)C)c3nc(-c4c(O)cccc4F)c(F)cc23)C(C)C1 (configuration not stated) + COc1c(OCCCN2CCOCC2)ccc2c3n(c(=NC(=O)c4cnc(N)nc4)nc12)CCN3",
    "Measurement Kind": "viability, T/C",
    "Reading": 12.4
  },
  {
    "Compound": "CC1(C)CCC(Nc2ncc(C(F)(F)F)c(-c3c[nH]c4c(P(C)(C)=O)c(C#N)ccc34)n2)CN1 (configuration not stated) + COc1c(OCCCN2CCOCC2)ccc2c3n(c(=NC(=O)c4cnc(N)nc4)nc12)CCN3",
    "Measurement Kind": "viability, T/C",
    "Reading": 2.05
  },
  {
    "Compound": "Cn1ncc(Cl)c1-c1cc(C(=O)NC(CN)Cc2cccc(F)c2)sc1Cl (configuration not stated) + Cc1nc(NC(=O)N2CCCC2C(N)=O)sc1-c1ccnc(C(C)(C)C(F)(F)F)c1",
    "Measurement Kind": "viability, T/C",
    "Reading": 16
  }
]

Required: viability, T/C, one value per compound below.
1. C[C@@H](NC(=O)c1ncnc(N)c1Cl)c1ncc(C(=O)Nc2cc(C(F)(F)F)c(Cl)cn2)s1 + COc1c(OCCCN2CCOCC2)ccc2c3n(c(=NC(=O)c4cnc(N)nc4)nc12)CCN3
2. CCCS(=O)(=O)Nc1ccc(F)c(C(=O)c2c[nH]c3ncc(-c4ccc(Cl)cc4)cc23)c1F + COc1c(OCCCN2CCOCC2)ccc2c3n(c(=NC(=O)c4cnc(N)nc4)nc12)CCN3

[1.75, 2.7]
